# Target entity: D(3) dopamine receptor (Homo sapiens) (UniProt P35462)
# Sequence (P35462 whole entry, looked up): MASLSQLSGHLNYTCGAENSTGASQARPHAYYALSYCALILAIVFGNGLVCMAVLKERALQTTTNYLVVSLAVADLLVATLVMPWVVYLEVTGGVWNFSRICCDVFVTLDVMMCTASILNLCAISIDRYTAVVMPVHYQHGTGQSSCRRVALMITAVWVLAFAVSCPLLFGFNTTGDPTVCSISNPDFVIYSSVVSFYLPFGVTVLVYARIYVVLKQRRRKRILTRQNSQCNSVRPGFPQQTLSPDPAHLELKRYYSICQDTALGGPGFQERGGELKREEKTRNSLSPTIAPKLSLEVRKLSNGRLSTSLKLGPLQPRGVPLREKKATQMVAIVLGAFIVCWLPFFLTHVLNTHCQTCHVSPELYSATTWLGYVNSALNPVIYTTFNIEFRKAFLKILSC
# Assay method text: qHTS of D3 Dopamine Receptor Antagonist: qHTS
# Study conditions: D3R cells, DiscoveRx beta-arrestin luminescence, antagonist mode; active compounds read low
Out of some 360,000 compounds screened, about 9,100 (2.5%) were called active. Not shown: some 4% with an inconclusive outcome. Shown is part of a subset that was picked to be rich in actives.
Each record is given True if its reported max response, negative = inhibition is strictly below -20%. Records at or above -20% are given False.

// below: answered compounds
INSERT INTO measurements (compound, qualitative_label) VALUES
  ('CCC(=O)CC(c1ccc([N+](=O)[O-])cc1)c1c(O)c2ccccc2oc1=O (stereo unspecified)', 'True'),
  ('Cc1ccsc1C(=O)C1CCCN(Cc2ccc(O)cc2)C1 (stereo unspecified)', 'True'),
  ('CC1(C)Cc2c(C#N)c(N3CCNCC3)nc(-c3ccco3)c2CS1', 'False'),
  ('Cn1cc(C(=O)OCC(=O)N2CCCC2)c2ccccc21', 'False'),
  ('Cc1cc2ccccn2c1C(C[N+](=O)[O-])c1c(F)cccc1Cl (stereo unspecified)', 'True');

# TODO verify max response, negative = inhibition < -20% strictly for this compound: Cc1nc2ccccn2c1P(=S)(N1CCCCC1)N1CCCCC1
False

These data points were gathered from PubChem BioAssay AID652054.
